Target: T1, biotinylated CD32bECDHis (human, UniProt P31994 43-223, limits assumed, biotinylated (sites not given))
T1 sequence (looked up): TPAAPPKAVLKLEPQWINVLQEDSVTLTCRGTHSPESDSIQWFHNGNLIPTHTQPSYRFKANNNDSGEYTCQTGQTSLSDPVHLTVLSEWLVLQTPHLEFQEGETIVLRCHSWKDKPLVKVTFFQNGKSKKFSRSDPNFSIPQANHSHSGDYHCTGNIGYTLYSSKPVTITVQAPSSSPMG
Assay: competition ELISA, competitor 024
Please respond with reported % residual binding for every item in the list.

*Q* Given the binder Antibody 024 (antibody, V domains shown, also called HuMab 024) VH: QVQLVQSGAEVKKPGASVKVSCKASGYTFTSYGLSWVRQAPGQGLEWMGWISPYNGNTHYAQKLQGRVTMTTDTSTSTAYMDLRSLRSDDTAVYYCARDSAAHGMDVWGQGTTVTVSS VL: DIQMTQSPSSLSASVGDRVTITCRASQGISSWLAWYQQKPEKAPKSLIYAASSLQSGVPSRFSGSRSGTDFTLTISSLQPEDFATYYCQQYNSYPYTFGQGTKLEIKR , write its reported % residual binding.
*A* 15%

*Q* Given the binder Antibody 063 (antibody, human IgG1, V domains shown, Human antibody; also called HuMab 063) VH: EVQLLESGGGLVQPGGSLRLSCAASGFTFSSYAMSWVRQAPGKGLEWVSAISDSGGSTYYADSVKGRFTISRDNSKNTLYLQMNSLRAEDTAAYYCAKEIAVALFDYWGQGTLVTVSS VL: EIVLTQSPATLSLSPGERATLSCRASQSVSSYLAWYQQKPGQAPRLLIYDASNRATGIPARFSGSGSGTDFTLTISSLEPEDFAVYYCQQRSSWPPYTFGQGTKLEIKR , write its reported % residual binding.
*A* 23%
